test system: normal skin of CD Hairless male rats; assay type: in vivo, rat; conditions: rat, in vivo
readout_label: Normal skin Response (1 μmol) (h)
One number for each entry, in h.

molecule	u	assay_result
CCC1=C(C)C2=[N+]3C1=Cc1c(C)c(CC)c4[n]1[Ga-2]31([Cl])[n]3c(c(C)c(CCC(=O)NC)c3=CC3=[N+]1C(=C4)C(C)=C3CCC(=O)NC)=C2	h	6
CCOC(=O)CCCCC1=C(C)C2=Cc3c(CC)c(C)c4[n]3[Zn-2]35[n]6c(c(C)c(CCCCC(=O)OCC)c6=CC1=[N+]23)=CC1=[N+]5C(=C4)C(CC)=C1C (stereo not drawn)	h	24

For the molecule "CCC1=C(C)C2=[N+]3C1=Cc1c(C)c(CC)c4[n]1[In-2]31([Cl])[n]3c(c(C)c(CCC(=O)NC)c3=CC3=[N+]1C(=C4)C(C)=C3CCC(=O)NC)=C2" , what Normal skin Response (1 μmol) is on record?
48

====

system: normal uninjured rat carotid arteries (medial and adventitial cell populations); assay: In vivo rat carotid artery acellularity after PDT; design: species or system Sprague Dawley rats; settings: Table 4; drug dose 1 μMol; 575 nm (Pt 532 nm)
Please provide measured Max % Rat Artery Accelularity for the entries that follow.
Answers are plain numbers, in %.

These recorded examples may help you get a feel for the data.
> print(dat)
                    structure.smiles.string  assay.result
1  CCOC(=O)CCC1=C(C)C2=Cc3c(CC)c(CC)c4[n]3[Ga-2]35([Cl])[n]6c(c(C)c(CCC(=O)OCC)c6=CC1=[N+]23)=CC1=[N+]5C(=N4)C(CC)=C1CC            60
2  CCC1=C(CC)C2=Nc3c(CC)c(CC)c4[n]3[Sn]([Cl])([Cl])[n]3c(c(C)c(CCC(=O)NC)c3=CC3=NC(=C4)C(C)=C3CCC(=O)NC)=CC1=N2            30
3  CCC1=C(CC)c2nc1cc1[nH]c(cc3nc(cc4[nH]c(n2)c(CC)c4CC)C(C)=C3CCC(=O)O)c(CCC(=O)O)c1C             0
4  CCC1=C(CC)C2=[N+]3C1=Nc1c(CC)c(CC)c4[n]1[Ga-2]31([Cl])[n]3c(c(C)c(CCC(=O)O)c3=CC3=[N+]1C(=C4)C(C)=C3CCC(=O)O)=C2            30
5  CCC1=C(CC)C2=Nc3c(CC)c(CC)c4[n]3[In]([Cl])[n]3c(c(C)c(CCC(=O)NC)c3=CC3=NC(=C4)C(C)=C3CCC(=O)NC)=CC1=N2            50

Please turn your attention to the following entry.
// fetch normal uninjured rat carotid arteries (medial and adventitial cell populations) Max % Rat Artery Accelularity for "C=CC1=C(C)c2nc1cc1[n-]c(cc3nc(cc4[n-]c(n2)c(C)c4CCC(=O)OC)C(CCC(=O)OC)=C3C)c(C=C)c1C.[Cl-].[Ga+3]"
55

====

test system: normal skin of CD Hairless male rats; assay type: in vivo, rat; details: rat, in vivo

molecule	tested_target	Normal skin Response (1 μmol) in hrs
COC(=O)CCC1=C(C)c2cc3[n-]c(cc4nc(cc5[n-]c(cc1n2)c(CCC(=O)OC)c5C)C(CN(C)C)=C4C)c(CN(C)C)c3C.[Ga+3].[OH-]	normal skin of CD Hairless male rats	None
CCC1=C(CC)C2=[N+]3C1=Nc1c(CC)c(CC)c4[n]1[Ga-2]31([OH])[n]3c(c(C)c(CCC(=O)[O-])c3=CC3=[N+]1C(=C4)C(C)=C3CCC(=O)[O-])=C2.[Na+].[Na+]	normal skin of CD Hairless male rats	None
CCC1=C(C)c2cc3[n-]c(cc4nc(cc5[n-]c(cc1n2)c(C)c5CC)C(C)=C4CCC(=O)[O-])c(CCC(=O)[O-])c3C.[Ga+3].[Na+].[Na+].[OH-]	normal skin of CD Hairless male rats	none
CCC1=C(C)C2=[N+]3C1=Cc1c(C)c(CC)c4[n]1[Zn-2]31[n]3c(c(C)c(CCC(=O)NCCCN5CCOCC5)c3=CC3=[N+]1C(=C4)C(C)=C3CCC(=O)NCCCN1CCOCC1)=C2 (stereo not shown)	normal skin of CD Hairless male rats	None
